// reported selectivity ratio per item
- System: CYP2E1 versus CYP2A6
- experiment summary: Ratio of inhibition of human cytochrome P-450 2E1 to 2A6 was determined; Expressed as IC50(CYP2E1)/IC50(CYP2A6)
Just the number, please, no unit attached.

INPUT: Any idea what its selectivity ratio is? The compound is `O/N=C/c1ccc(-c2cccnc2)s1`
OUTPUT: 3

INPUT: Request the reported selectivity ratio associated with `CNc1ccc(-c2cccnc2)s1`
OUTPUT: 8.9

INPUT: Look up selectivity ratio for this compound: `C[n+]1c[nH]cc1-c1cccnc1`
OUTPUT: 5

INPUT: Request the reported selectivity ratio associated with `Fc1ccc(-c2ccsc2)cn1`
OUTPUT: 1.2

INPUT: I have this compound here, `CCn1cnc(-c2cccnc2)c1` , and I need its recorded selectivity ratio.
OUTPUT: 26
